Provenance of the data: patent US20250188069A1

# Tested on: MV-4-11 cells
# test.summary: AML cell viability assay (RealTime-Glo)
# Assay type: cell-based
# condition.label: Homo sapiens, MV4-11; IC50 class; MV-4-11 cells, RealTime-Glo after 44 hrs of treatment (TABLE 5); read-out: Cell viability classification
pIC50: −log10 of the molar value.
recorded.endpoint: pIC50

compound | measured.target | pIC50
O=C1CCC(N2Cc3c(cc(F)cc3N(CCC3CC3)[C@H]3CC[C@H](NCC4(C(F)(F)F)CC4)CC3)C2=O)C(=O)N1 (some centres unmarked) | MV-4-11 cells | 6.00 to 7.00
O=C1CCC(N2Cc3c(cccc3N(CC3CCC3)[C@H]3CC[C@H](NCC4(C(F)(F)F)CC4)CC3)C2=O)C(=O)N1 (some centres unmarked) | MV-4-11 cells | 6.00 to 7.00
O=C1CCC(N2Cc3c(cccc3N(CCC3CC3)[C@H]3CC[C@H](NCCC4(C(F)(F)F)CC4)CC3)C2=O)C(=O)N1 (some centres unmarked) | MV-4-11 cells | > 7.00
O=C1CCC(N2Cc3c(cccc3N(CC3CC4(CCC4)C3)[C@H]3CC[C@H](NCC4(C(F)(F)F)CC4)CC3)C2=O)C(=O)N1 (some centres unmarked) | MV-4-11 cells | 6.00 to 7.00
O=C1CCC(N2Cc3c(cccc3N(CCC3CC3)[C@H]3CC[C@H](CNCCC(F)(F)F)CC3)C2=O)C(=O)N1 (some centres unmarked) | MV-4-11 cells | 6.00 to 7.00

// next entry
Problem: What pIC50 value was documented for this compound, O=C1CCC(N2Cc3c(cccc3N(CCC3CC3)[C@H]3CC[C@@H](NCCCC(F)(F)F)CC3)C2=O)C(=O)N1 (some centres unmarked) [Compound 642A] ?
Solution: < 6.00
